# tgt: Phosphorylase b kinase gamma catalytic chain, skeletal muscle/heart isoform (Homo sapiens)
# stated_conditions: at 1 µM;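 further: each value is a mean percent inhibition of PHKG1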
// inhibition lookup, one value per entry

compound | tgt | observed
CCS(=O)(=O)c1ccc(OC)c(Nc2ncc(-c3cccc(-c4ccccc4F)c3)o2)c1 | Phosphorylase b kinase gamma catalytic chain, skeletal muscle/heart isoform (Homo sapiens) | 9.38%

Give me measured inhibition, please, for this compound: "COc1cc(Nc2ncc(-c3ccccc3)o2)cc(OC)c1OC"
20.9%

// fetch inhibition given entry "NS(=O)(=O)c1ccc(N/N=C2\C(=O)Nc3ccc(-c4cnco4)cc32)cc1"
27.9%

Query inhibition for "NC(=O)c1ccc(Oc2nccc(-c3c(-c4ccc(F)cc4)ncn3C3CCNCC3)n2)cc1"
5.58%

Give the measured inhibition for Nc1nccc(-c2c(-c3ccc(F)cc3)ncn2C2CCC(O)CC2)n1 (stereo not drawn)
0.55%

Name the recorded inhibition of the item "C[C@@H](Oc1cc(-n2cnc3ccc(OCC4CCN(C)CC4)cc32)sc1C(N)=O)c1ccccc1Cl" in your answer.
10.2%

Return inhibition (reported value) for this compound: "O=C(Nc1n[nH]c2nc(-c3ccc(O)cc3)c(Br)cc12)C1CC1"
10.7%

Could you please provide reported inhibition for "CN(C)CCOc1ccc(-c2cc(-c3ccc4c(c3)CCC4=NO)c(-c3ccncc3)o2)cc1" ? Thanks!
5.45%

Identify measured inhibition associated with "O=C(Nc1ccc(Oc2ccc3[nH]c(NC(=O)c4ccccc4)nc3c2)cc1)Nc1cc(C(F)(F)F)ccc1F"
7.47%

Look up and report measured inhibition for this entry: "CN1CCN(CCCNc2nc3ccc(Oc4ccc(NC(=O)Nc5cc(C(F)(F)F)ccc5F)cc4)cc3[nH]2)CC1"
0.68%

Indicate its recorded inhibition; the compound in question is "CCc1nccc2c1nc(-c1nonc1N)n2CC"
1.98%

Check the records and state inhibition for "CCS(=O)(=O)c1ccc(OC)c(Nc2ncc(-c3ccccc3Cl)o2)c1"
1.36%

Give a short answer stating reported inhibition for "COc1cc(Nc2ncc3c(C)nc(-c4cccc(C(F)(F)F)c4)n3n2)cc(OC)c1OC" .
11.8%

Please report inhibition for the following compound: "O=C1Nc2ccccc2/C1=C/Nc1ccc(-n2cncn2)cc1"
33.6%

Using known records, supply inhibition for "O=C1Nc2ccc(I)cc2C1=Cc1cc(Br)c(O)c(Br)c1"
3.92%

Given the compound "NCc1ccc(-n2c(-c3nonc3N)nc3cnccc32)cc1" , write its reported inhibition.
16%

Identify measured inhibition corresponding to "COc1cc(Nc2ncc3c(C)nc(-c4cccc(Oc5ccccc5)c4)n3n2)cc(OC)c1OC"
5.67%

Give a short answer stating reported inhibition for "COc1ccc(-c2ccc3c(NC(=O)C4CC4)n[nH]c3n2)cc1" .
7.79%

Provide one value: measured inhibition of "NC(=O)c1cc(-c2ccc(F)cc2)cc(-c2ccncc2)c1N"
5.92%

# return recorded inhibition for entry "NC(=O)c1cc(-c2ccncc2)cc(-c2ccccc2)c1N"
4.23%

State, in one line, measured inhibition of "COc1ccc(C2=C(N3CCc4ccccc43)C(=O)NC2=O)cc1"
6.35%

Given the compound "O=C(Nc1n[nH]c2nc(-c3ccco3)ccc12)C1CC1" , write its reported inhibition.
3.2%

Quickly give me recorded inhibition for "Fc1ccc(-c2ncn(C3CCNCC3)c2-c2ccnc(Oc3ccc(Oc4ccccc4)cc3)n2)cc1"
-5.23%
